Tested on: P-388
assay.text: Inhibition of cell growth by counting cells, P-388
Format: cell-based, mouse
condition.details: Mus musculus, P388, 72 h; three days of incubation; read-out: IC50 (molar) P-388
Description: 1°.—Inhibition of Cell Growth by Counting Cells. This form of the assay employs 24 well multidishes of 16 mm diameter (Bergeron, 1984; Schroeder, 1981). […] For quantifying the activity, after the incubation time, cells are trypsinized and counted in a Coulter Counter ZM. […]
Rule: measured IC50 below 5 nM gets label 1; anything equal to or greater than 5 nM gets label 0.

Q: Given COc1cc2c(cc1O)CCN[C@]21CS[C@@H]2c3c(OC(=O)/C=C/c4ccccc4)c(C)c4c(c3[C@H](COC1=O)N1C2[C@H]2c3c(cc(C)c(OC)c3O)C[C@@H]([C@@H]1O)N2C)OCO4 (some centres unmarked) , is recorded IC50 strictly lower than 5 nM?
A: label 1

* * *

Provide the recorded CC50 for the entries that follow.
Tested on: LoVo-Dox
assay.text: Inhibition of cells growth by colorimetric assay (SRB), LoVo-Dox
Assay type: cell-based
condition.details: Homo sapiens, 48 h, read-out: LOVO-DOX LC50, LOVO-DOX; SRB, 48 hours exposure
Give bare numbers, in µM.

In the examples that follow, each entry is paired with its recorded CC50.
compound="COc1cc2c(cc1O)CCN(C)[C@]21CS[C@@H]2c3c(OC(C)=O)c(C)c4c(c3[C@H](COC1=O)N1C2[C@H]2c3c(cc(C)c(OC)c3O)C[C@@H]([C@@H]1O)N2C)OCO4 (some centres unmarked)" target_or_test_system=LoVo-Dox result=12.9
compound="C=COC(=O)N1CCc2cc(O)c(OC)cc2[C@@]12CS[C@@H]1c3c(OC(C)=O)c(C)c4c(c3[C@H](COC2=O)N2C1[C@H]1c3c(cc(C)c(OC)c3O)C[C@@H]([C@@H]2O)N1C)OCO4 (some centres unmarked)" target_or_test_system=LoVo-Dox result=12
compound="COc1cc2c(cc1OC)[C@@]1(CS[C@@H]3c4c(OC(C)=O)c(C)c5c(c4[C@H](COC1=O)N1C3[C@H]3c4c(cc(C)c(OC)c4OC)C[C@@H]([C@@H]1O)N3C)OCO5)NCC2 (some centres unmarked)" target_or_test_system=LoVo-Dox result=12.7
compound="COc1cc2c(cc1O)CCN[C@]21CS[C@@H]2c3c(OC(C)=O)c(C)c4c(c3[C@H](COC1=O)N1C2[C@H]2c3c(cc(C)c(OC)c3OC(C)C)C[C@@H]([C@@H]1O)N2C)OCO4 (some centres unmarked)" target_or_test_system=LoVo-Dox result=12.4

Q: Recorded CC50 of C=COC(=O)Oc1cc2c(cc1OC)[C@@]1(CS[C@@H]3c4c(OC(C)=O)c(C)c5c(c4[C@H](COC1=O)N1C3[C@H]3c4c(cc(C)c(OC)c4O)C[C@@H]([C@@H]1O)N3C)OCO5)N(C(=O)OC=C)CC2 (some centres unmarked) , please.
A: 11.1

* * *

Would you kindly list IC50 for each of these compounds?
System: P-388
assay.text: Inhibition of cell growth by counting cells, P-388
Format: cell-based, mouse
condition.details: Mus musculus, P388, 72 h; three days of incubation; read-out: IC50 (molar) P-388
Give bare numbers, in nM.

compound="CCCC(=O)Oc1cc2c(cc1OC)[C@@]1(CS[C@@H]3c4c(OC(C)=O)c(C)c5c(c4[C@H](COC1=O)N1C3[C@H]3c4c(cc(C)c(OC)c4OC(=O)CCC)C[C@@H]([C@@H]1C#N)N3C)OCO5)NCC2 (some centres unmarked) [Compound 9]" result=0.11

Q: So what IC50 did CCCCCCCCCCCCCCCC(=O)Oc1c(C)c2c(c3c1[C@H]1SC[C@]4(NCCc5cc(OC(=O)OC(C)(C)C)c(OC)cc54)C(=O)OC[C@@H]3N3C1[C@H]1c4c(cc(C)c(OC)c4O)C[C@@H]([C@@H]3C#N)N1C)OCO2 (some centres unmarked) [Compound 121] get with P-388?
A: 469

* * *

Test system: P-388
assay.text: Inhibition of cell growth by counting cells, P-388
Format: cell-based, mouse
condition.details: Mus musculus, P388, 72 h; three days of incubation; read-out: IC50 (molar) P-388
test.readout: IC50 (nM)
Answers are plain numbers, in nM.

compound="C=CCOc1cc2c(cc1OC)[C@@]1(CS[C@@H]3c4c(O)c(C)c5c(c4[C@H](COC1=O)N1C3[C@H]3c4c(cc(C)c(OC)c4OCC=C)C[C@@H]([C@@H]1C#N)N3C)OCO5)NCC2 (stereo partly drawn)" target_or_test_system=P-388 test_readout=IC50 result=124
compound="CCCCCCCC(=O)Oc1cc2c(cc1OC)[C@@]1(CS[C@@H]3c4c(OC(C)=O)c(C)c5c(c4[C@H](COC1=O)N1C3[C@H]3c4c(cc(C)c(OC)c4O)C[C@@H]([C@@H]1C#N)N3C(=O)OC(C)(C)C)OCO5)NCC2 (stereo partly drawn)" target_or_test_system=P-388 test_readout=IC50 result=10.2

From here, focus on the item given below.
Q: So what IC50 did CCCCCCCC(=O)Oc1cc2c(cc1OC)[C@@]1(CS[C@@H]3c4c(OC(C)=O)c(C)c5c(c4[C@H](COC1=O)N1C3[C@@H]3N[C@@H](Cc4cc(C)c(OC)c(O)c43)[C@@H]1C#N)OCO5)NCC2 (stereo partly drawn) get with P-388?
A: 0.113

* * *

Below are Toxicity Data Heart values measured for Heart.

compound="COc1cc2c(cc1OC)[C@@]1(CS[C@@H]3c4c(OC(C)=O)c(C)c5c(c4[C@H](COC1=O)N1C3[C@H]3c4c(cc(C)c(OC)c4OC)C[C@@H]([C@@H]1O)N3C)OCO5)NCC2 (some centres unmarked)" target_or_test_system=Heart result=3.60E-08

Continue with the next compound.
Q: I would be grateful if you could share the reported Toxicity Data Heart for COc1cc2c(cc1OC(=O)[C@H](C)NC(=O)OC(C)(C)C)CCN[C@]21CS[C@@H]2c3c(OC(C)=O)c(C)c4c(c3[C@H](COC1=O)N1C2[C@H]2c3c(cc(C)c(OC)c3O)C[C@@H]([C@@H]1O)N2C)OCO4 (some centres unmarked) .
A: 3.46E-08

* * *

Tested on: DU-145
assay.text: Inhibition of cells growth by colorimetric assay (SRB), DU-145
Format: cell-based
condition.details: Homo sapiens, DU-145, 48 h, DU-145; SRB, 48 hours exposure; read-out: DU-145 GI50
Would you kindly list log10 of GI50 for each of these molecules?
Note the log scale: values are log10 of GI50 expressed in nM.

molecule="COc1cc2c(cc1O)CCN[C@]21CS[C@@H]2c3c(OC(C)=O)c(C)c4c(c3[C@H](COC1=O)N1C2[C@H]2c3c(cc(C)c(OC)c3OC(=O)OC(C)(C)C)C[C@@H]([C@@H]1O)N2C)OCO4 (stereo partly shown)" target_or_test_system=DU-145 result=-0.63
molecule="COC1=C(C)C(=O)C2=C(C1=O)[C@@H]1C3[C@@H]4SC[C@]5(NCCc6cc(O)c(OC)cc65)C(=O)OC[C@@H](c5c6c(c(C)c(OC(C)=O)c54)OCO6)N3[C@@H](O)[C@H](C2)N1C (stereo partly shown)" target_or_test_system=DU-145 result=0.57
molecule="C=COC(=O)N1CCc2cc(O)c(OC)cc2[C@@]12CS[C@@H]1c3c(OC(C)=O)c(C)c4c(c3[C@H](COC2=O)N2C1[C@H]1c3c(cc(C)c(OC)c3O)C[C@@H]([C@@H]2O)N1C)OCO4 (stereo partly shown)" target_or_test_system=DU-145 result=1.58

Lab note: each molecule below needs its log10 of GI50 filled in.
1. C=COC(=O)Oc1cc2c(cc1OC)[C@@]1(CS[C@@H]3c4c(OC(C)=O)c(C)c5c(c4[C@H](COC1=O)N1C3[C@H]3c4c(cc(C)c(OC)c4O)C[C@@H]([C@@H]1O)N3C)OCO5)N(C(=O)OC=C)CC2 (stereo partly shown)
2. COc1cc2c(cc1OC)[C@@]1(CS[C@@H]3c4c(OC(C)=O)c(C)c5c(c4[C@H](COC1=O)N1C3[C@H]3c4c(cc(C)c(OC)c4OC)C[C@@H]([C@@H]1O)N3C)OCO5)NCC2 (stereo partly shown)
3. COc1cc2c(cc1O)CCN(C)[C@]21CS[C@@H]2c3c(OC(C)=O)c(C)c4c(c3[C@H](COC1=O)N1C2[C@H]2c3c(cc(C)c(OC)c3O)C[C@@H]([C@@H]1O)N2C)OCO4 (stereo partly shown)
4. COc1cc2c(cc1O)CCN[C@]21CS[C@@H]2c3c(OC(C)=O)c(C)c4c(c3[C@H](COC1=O)N1C2[C@H]2c3c(cc(C)c(OC)c3OC(C)C)C[C@@H]([C@@H]1O)N2C)OCO4 (stereo partly shown)

A:
1.63
1.13
-0.48
1.60
